- system: MMP-2 (Homo sapiens (Human), UniProt P08253)
- Sequence (P08253 110-660): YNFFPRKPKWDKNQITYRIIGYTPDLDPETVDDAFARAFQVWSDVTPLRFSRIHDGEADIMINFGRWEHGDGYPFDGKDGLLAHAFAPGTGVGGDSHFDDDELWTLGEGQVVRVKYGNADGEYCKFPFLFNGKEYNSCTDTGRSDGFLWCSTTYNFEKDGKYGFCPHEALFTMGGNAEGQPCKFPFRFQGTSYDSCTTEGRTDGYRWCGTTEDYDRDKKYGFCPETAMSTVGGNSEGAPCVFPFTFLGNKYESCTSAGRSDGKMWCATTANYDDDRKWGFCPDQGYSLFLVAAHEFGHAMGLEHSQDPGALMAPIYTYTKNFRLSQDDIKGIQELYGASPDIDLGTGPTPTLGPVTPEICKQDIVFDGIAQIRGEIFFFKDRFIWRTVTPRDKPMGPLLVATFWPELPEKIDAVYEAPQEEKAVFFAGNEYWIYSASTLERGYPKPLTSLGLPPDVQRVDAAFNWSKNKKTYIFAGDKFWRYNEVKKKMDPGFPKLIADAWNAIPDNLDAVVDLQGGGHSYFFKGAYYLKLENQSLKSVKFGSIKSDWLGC
- assayRemarks: MMP-2 inhibition assay (fluorimetric, DQ gelatin substrate)
- Assay type: biochemical
- conditionParameters: recombinant MMP-2 (CHO cells) 85 ng/mL, DQ gelatin 50 μg/mL, 2 hours at room temperature, pH 7.6
- Method: All the experiments were done in 1× reaction buffer, which was obtained from a 10× reaction buffer solution. The content of the 10× reaction buffer was: 50 mL of 0.5 M Tris-HCl, 1.5 M NaCl, 50 mM CaCl2 and 2 mM sodium azide at pH 7.6. […] The inhibitory activity of the new compound was measured fluorimetrically. […] Inhibitory activity at several concentration points (ranging from 100 pM to 200 μM MMP) were measured for each compound. […] d corresponds to the fluorescence intensity of the presence of substrate
pIC50: −log10 of the molar value. Where a SMILES comes first, the peptide text is derived from it. [ ]: non-standard residue; d: D form. The star is where a group is joined. ξ: configuration not given here. Benzoyl(3,5-F2) = O=C(c1cc(F)cc(F)c1)*; NMeIle(3ξ) = CCC(C)[C@H](NC)C(=O)O; NMeQ = CN[C@@H](CCC(N)=O)C(=O)O; Ile(3ξ) = CCC(C)[C@H](N)C(=O)O; NMeA = CN[C@@H](C)C(=O)O; Dab = NCC[C@H](N)C(=O)O; Hexanoyl = CCCCCC(=O)*; NHOH = ON*
I'd be grateful if you could share measured pIC50 for these entries.

Write pIC50 of CCC(C)[C@H](NC(=O)[C@@H]1CCCN1C(=O)[C@H](CCC(N)=O)NC(C)=O)C(=O)NO (stereo partly drawn) [Example C19, reference compound] (Ac-Gln-Pro-[Ile(3ξ)]-{NHOH}) ; system used: MMP-2 (Homo sapiens (Human), UniProt P08253)
< 2.70

Write pIC50 of CCC(C)[C@@H](C(=O)N[C@@H](CCNC(=O)c1cc(F)cc(F)c1)C(=O)NO)N(C)C(=O)[C@@H]1CCCN1C(=O)[C@H](C)N(C)C(C)=O (stereo partly drawn) [Example 12] (Ac-[NMeA]P[NMeIle(3ξ)][Dab](Benzoyl(3,5-F2))-{NHOH}) ; system used: MMP-2 (Homo sapiens (Human), UniProt P08253)
7.68

Write pIC50 of CCCCCC(=O)N1CCC[C@H]1C(=O)N(C)[C@@H](CCC(N)=O)C(=O)N[C@@H](Cc1c[nH]c2ccccc12)C(=O)NO [Example C23, reference compound] (Hexanoyl-Pro-[NMeQ]-Trp-{NHOH}) ; system used: MMP-2 (Homo sapiens (Human), UniProt P08253)
< 2.70

###

- system: MMP-9
- Sequence (P14780 107-707 limits assumed): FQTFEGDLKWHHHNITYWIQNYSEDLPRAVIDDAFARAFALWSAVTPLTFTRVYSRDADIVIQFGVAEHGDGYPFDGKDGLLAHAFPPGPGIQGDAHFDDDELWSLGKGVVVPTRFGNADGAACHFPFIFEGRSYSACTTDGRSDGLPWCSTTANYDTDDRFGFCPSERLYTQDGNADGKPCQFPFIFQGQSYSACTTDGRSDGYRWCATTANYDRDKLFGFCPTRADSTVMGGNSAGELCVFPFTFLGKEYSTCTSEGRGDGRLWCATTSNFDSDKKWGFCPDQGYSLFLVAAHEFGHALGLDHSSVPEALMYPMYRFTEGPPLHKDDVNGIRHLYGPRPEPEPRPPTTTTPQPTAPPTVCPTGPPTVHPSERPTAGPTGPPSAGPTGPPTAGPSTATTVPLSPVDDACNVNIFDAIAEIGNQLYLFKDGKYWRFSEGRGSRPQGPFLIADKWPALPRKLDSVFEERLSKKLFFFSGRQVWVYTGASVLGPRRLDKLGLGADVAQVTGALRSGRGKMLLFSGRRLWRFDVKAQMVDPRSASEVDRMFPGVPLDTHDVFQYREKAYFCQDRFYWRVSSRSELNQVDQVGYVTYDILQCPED
- assayRemarks: MMP-9 inhibition assay (fluorimetric, DQ gelatin substrate)
- conditionParameters: recombinant MMP-9 (Merck-Millipore for examples 1 to 9 and comparative examples; Enzo for examples 10 to 16), DQ gelatin 50 μg/mL, 4 hours at room temperature, pH 7.6
Where a SMILES comes first, the peptide text is derived from it. [ ]: non-standard residue; d: D form. The star is where a group is joined. ξ: configuration not given here. NMeIle(3ξ) = CCC(C)[C@H](NC)C(=O)O; NMeQ = CN[C@@H](CCC(N)=O)C(=O)O; NHOH = ON*
reportedMetric: IC50 (µM)
Number only, in µM; omit the unit.

Give me measured IC50, please, for this compound: CCC(C)[C@@H](C(=O)N[C@@H](CCNC(=O)c1ccc(F)cc1)C(=O)NO)N(C)C(=O)[C@@H]1CCCN1C(C)=O (stereo partly shown)
1.26

Give me measured IC50, please, for this compound: CCC(C)[C@@H](C(=O)N[C@@H](CCNC(=O)c1cc(F)cc(F)c1)C(=O)NO)N(C)C(=O)[C@@H]1CCCN1C(=O)CCCOc1ccccc1 (stereo partly shown)
0.506

Give me measured IC50, please, for this compound: CCC(C)[C@@H](C(=O)N[C@@H](Cc1c[nH]c2ccccc12)C(=O)NO)N(C)C(=O)[C@@H]1CCCN1C(C)=O (stereo partly shown) [Example C21, reference compound] (Ac-Pro-[NMeIle(3ξ)]-Trp-{NHOH})
16

Give me measured IC50, please, for this compound: CCC(C)[C@@H](C(=O)N[C@@H](CCNC(=O)c1cc(F)cc(F)c1)C(=O)NO)N(C)C(=O)[C@@H]1CCCN1C(C)=O (stereo partly shown)
0.301

Give me measured IC50, please, for this compound: CC(=O)N1CCC[C@H]1C(=O)N(C)[C@@H](CCC(N)=O)C(=O)N[C@@H](Cc1c[nH]c2ccccc12)C(=O)NO [Example C20, reference compound] (Ac-Pro-[NMeQ]-Trp-{NHOH})
22
